target: Beta-glucuronidase (Escherichia coli (strain K12)); test: Inhibition of Escherichia coli GUS pre-incubated for 5 to 30 mins before 4-methylumbelliferone beta-D-glucuronide substrate addition at pH 5.5
Sequence (P05804 whole entry): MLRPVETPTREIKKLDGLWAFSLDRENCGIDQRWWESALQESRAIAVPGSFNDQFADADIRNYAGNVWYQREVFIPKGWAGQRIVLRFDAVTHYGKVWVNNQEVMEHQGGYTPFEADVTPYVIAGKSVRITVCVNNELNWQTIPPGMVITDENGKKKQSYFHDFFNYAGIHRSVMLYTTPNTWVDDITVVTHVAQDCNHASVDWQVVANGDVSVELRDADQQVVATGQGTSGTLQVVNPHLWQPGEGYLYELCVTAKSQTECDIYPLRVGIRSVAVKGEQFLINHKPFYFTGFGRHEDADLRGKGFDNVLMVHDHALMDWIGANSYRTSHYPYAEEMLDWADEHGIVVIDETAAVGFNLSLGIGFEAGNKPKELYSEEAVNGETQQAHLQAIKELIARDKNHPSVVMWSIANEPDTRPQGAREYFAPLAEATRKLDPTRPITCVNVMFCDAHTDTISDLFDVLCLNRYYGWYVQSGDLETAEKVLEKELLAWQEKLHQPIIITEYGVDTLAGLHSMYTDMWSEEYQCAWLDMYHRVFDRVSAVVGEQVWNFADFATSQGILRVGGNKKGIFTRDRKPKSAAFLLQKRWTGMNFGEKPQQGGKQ
pKi: −log10 of the molar value.
# binarize pKi: threshold 5 inclusive, high side 1.0, low side 0.0

CCCN1C[C@@H](O)[C@H](O)[C@@H](C(=O)O)C1 : 0.0
CCC[C@@H]1NC[C@@H](O)[C@H](O)[C@H]1C(=O)O : 1.0
O=C(O)[C@H]1OC(=O)[C@H](O)[C@@H](O)[C@@H]1O : 0.0
O=C(O)[C@H]1CNC[C@@H](O)[C@@H]1O : 1.0
O=C(O)[C@H]1NC[C@H](O)[C@@H](O)[C@@H]1O : 0.0

Lab note: next compound to report on.
# input # check: pKi of O=C(O)[C@H]1NC(=O)[C@H](O)[C@@H](O)[C@@H]1O is greater than or equal to 5
# output 1.0
